Test system: normal ECG in rats
testSummary: Effect on a normal electrocardiogram in rats
Assay type: in vivo, rat
conditionInfo: 5 mg/kg iv, 5 min; mean ± SD; in ms (unit assumed)
measureName: PQ interval
Numbers only.

# batch size: 5; output PQ interval per entry
1. Cl.NC(=O)c1ccccc1OCCCCCCN1CCN(c2cccc(Cl)c2)CC1 [JJGW03]
2. Cl.NC(=O)c1ccccc1OCCCCCN1CCN(c2cccc(Cl)c2)CC1 [JJGW02]
3. Cl.NC(=O)c1ccccc1OCCCCN1CCN(c2cccc(Cl)c2)CC1 [JJGW01]
4. COc1ccccc1N1CCN(CCCCOc2ccccc2C(N)=O)CC1.Cl [JJGW07]
5. COc1ccccc1N1CCN(Cc2cccc(COc3ccccc3C(N)=O)c2)CC1.Cl [JJGW11]

Output line:
1. 41.4
2. 41.7
3. 42.3
4. 40.0
5. 47.1

Lab entry: normal ECG in rats assay, compound COc1ccccc1N1CCN(Cc2ccc(COc3ccccc3C(N)=O)cc2)CC1.Cl [JJGW12] , PQ interval = 43.6

---

Test system: normal ECG in rats
testSummary: Effect on a normal electrocardiogram in rats
Type: in vivo, rat
conditionInfo: 5 mg/kg iv, 5 min; mean ± SD; in ms (unit assumed)
What QTc (Bazzett's formula) was measured for each of the following?

{"compound": "Cl.NC(=O)c1ccccc1OCCCCN1CCN(c2cccc(Cl)c2)CC1 [JJGW01]", "result": "193.7 ± 14.9"}

# batch size: 5; output QTc (Bazzett's formula) per entry
1. Cl.NC(=O)c1ccccc1OCCCCCN1CCN(c2cccc(Cl)c2)CC1 [JJGW02]
2. Cl.NC(=O)c1ccccc1OCCCCCCN1CCN(c2cccc(Cl)c2)CC1 [JJGW03]
3. COc1ccccc1N1CCN(CCCCOc2ccccc2C(N)=O)CC1.Cl [JJGW07]
4. COc1ccccc1N1CCN(Cc2cccc(COc3ccccc3C(N)=O)c2)CC1.Cl [JJGW11]
5. COc1ccccc1N1CCN(Cc2ccc(COc3ccccc3C(N)=O)cc2)CC1.Cl [JJGW12]

Output line:
175.4 ± 14.0
188.7 ± 16.3
190.8 ± 4.2
197.3 ± 18.6
194.3 ± 16.8

---

System: normal ECG in rats
testSummary: Effect on a normal electrocardiogram in rats
Type: in vivo, rat
conditionInfo: 5 mg/kg iv, 0 min (prior to administration); mean ± SD; in ms (unit assumed)
What QTc (Bazzett's formula) was measured for each of the following?
One number for each entry.

Reference set (5 entries):
{"compound": "COc1ccccc1N1CCN(Cc2ccc(COc3ccccc3C(N)=O)cc2)CC1.Cl [JJGW12]", "QTc (Bazzett's formula)": 190.8}
{"compound": "Cl.NC(=O)c1ccccc1OCCCCCCN1CCN(c2cccc(Cl)c2)CC1 [JJGW03]", "QTc (Bazzett's formula)": 177.6}
{"compound": "Cl.NC(=O)c1ccccc1OCCCCCN1CCN(c2cccc(Cl)c2)CC1 [JJGW02]", "QTc (Bazzett's formula)": 183.3}
{"compound": "COc1ccccc1N1CCN(CCCCOc2ccccc2C(N)=O)CC1.Cl [JJGW07]", "QTc (Bazzett's formula)": 196.5}
{"compound": "Cl.NC(=O)c1ccccc1OCCCCN1CCN(c2cccc(Cl)c2)CC1 [JJGW01]", "QTc (Bazzett's formula)": 196.0}

Below: the item to evaluate.
Per the record, COc1ccccc1N1CCN(Cc2cccc(COc3ccccc3C(N)=O)c2)CC1.Cl [JJGW11] has QTc (Bazzett's formula) of 188.2

---

System: adrenaline-induced arrhythmia model in rats
testSummary: Prophylactic antiarrhythmic activity in adrenaline-induced arrhythmia
Assay type: in vivo, rat
conditionInfo: 0.5 mg/kg iv 15 min before adrenaline 20 μg/kg; number of animals with event
measureName: Blocks

{"smi": "Cl.NC(=O)c1ccccc1OCCCCCCN1CCN(c2cccc(Cl)c2)CC1", "result": "5/5"}
{"smi": "COc1ccccc1N1CCN(Cc2ccc(COc3ccccc3C(N)=O)cc2)CC1.Cl", "result": "4/5"}
{"smi": "Cl.NC(=O)c1ccccc1OCCCCCN1CCN(c2cccc(Cl)c2)CC1", "result": "6/6"}

Below: the item to evaluate.
Per the record, COc1ccccc1N1CCN(Cc2cccc(COc3ccccc3C(N)=O)c2)CC1.Cl has Blocks of 1/6

---

System: normotensive rats
testSummary: Influence on blood pressure in the normotensive rats
Type: in vivo, rat
conditionInfo: 2.5 mg/kg iv, 50 min; mean ± SD
What DBP—diastolic blood pressure was measured for each of the following?
Numbers only, in mmHg.

Reference set (3 entries):
{"molecule": "COc1ccccc1N1CCN(Cc2cccc(COc3ccccc3C(N)=O)c2)CC1.Cl [JJGW11]", "measurementTarget": "normotensive rats", "DBP—diastolic blood pressure, mmHg": 77.7}
{"molecule": "COc1ccccc1N1CCN(Cc2ccc(COc3ccccc3C(N)=O)cc2)CC1.Cl [JJGW12]", "measurementTarget": "normotensive rats", "DBP—diastolic blood pressure, mmHg": 89.3}
{"molecule": "Cl.NC(=O)c1ccccc1OCCCCCN1CCN(c2cccc(Cl)c2)CC1 [JJGW02]", "measurementTarget": "normotensive rats", "DBP—diastolic blood pressure, mmHg": 73.7}

Below: the item to evaluate.
Lab entry: normotensive rats assay, molecule Cl.NC(=O)c1ccccc1OCCCCCCN1CCN(c2cccc(Cl)c2)CC1 [JJGW03] , DBP—diastolic blood pressure = 81.2
